ASSAY NAME: Cytotoxicity against […] cells by MTT assay
Assay type: cell-based
# key: entry, value: CC50

[in] Entry CN1C=C(/N=N/c2cccc3ccccc23)CCC1 has what CC50?
[out] > 100 µM

Others:
[in] Which CC50 is reported for this molecule? CC(=O)Nc1ccc(-c2nc3cc([N+](=O)[O-])ccc3[nH]2)cc1
[out] > 100 µM

[in] Consider the molecule CN1C=C(/N=N/c2cccc([N+](=O)[O-])c2)CCC1 and give its measured CC50.
[out] > 100 µM

All values here come from ChEMBL document CHEMBL1212868.
